targetSystem: T1, recombinant human IGSF8 extracellular domain tagged by a human Fc region (IGSF8-hFc) (human, UniProt Q969P0 28-579, biotin label in Examples 17, 18 and 28 (site not given))
T1 construct: also called IGSF8-Fc fusion protein; IGSF8-hFc-biotin; not shown: human Fc region
T1 sequence: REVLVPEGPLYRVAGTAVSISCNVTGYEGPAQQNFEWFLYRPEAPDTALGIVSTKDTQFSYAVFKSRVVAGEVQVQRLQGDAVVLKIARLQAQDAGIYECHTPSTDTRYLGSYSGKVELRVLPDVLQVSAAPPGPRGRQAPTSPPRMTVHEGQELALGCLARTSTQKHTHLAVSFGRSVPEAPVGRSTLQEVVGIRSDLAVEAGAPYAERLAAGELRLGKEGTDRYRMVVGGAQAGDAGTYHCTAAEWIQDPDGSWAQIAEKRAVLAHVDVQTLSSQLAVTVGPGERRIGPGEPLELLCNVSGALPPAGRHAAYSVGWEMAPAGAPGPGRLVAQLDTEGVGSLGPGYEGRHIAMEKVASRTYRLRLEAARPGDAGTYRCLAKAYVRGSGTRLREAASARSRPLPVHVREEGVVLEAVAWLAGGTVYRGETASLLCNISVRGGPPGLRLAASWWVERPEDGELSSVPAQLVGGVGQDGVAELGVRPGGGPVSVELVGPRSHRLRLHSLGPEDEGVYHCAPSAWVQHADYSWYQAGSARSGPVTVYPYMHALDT
protocolNotes: SPR, Ab captured
Exercise: state measured kon for each of the binders provided.
Note: unit M⁻¹ s⁻¹ is implicit; provide only the numeric part.

Ask: kon lookup needed for L2-07 (antibody, V domains shown) VH: EVQLVESGGGLEQPGGSLRLSCAASGFTFRDYAMTWVRQAPGKGLEWVSSISGSGGSTYYADSVKGRFTISRDNSKNTLYLQMNSLRAEDTAIYYCARGEYSSGWPSWFDPWGQGTLVTVSS VL: DIQMTQSPSSLSASVGDRVTITCRASRTVGTFLNWYQQKPGKAPKALILGVSILEGGVPSRFSGSGSGTDFTLTISSLQPEDIGTYYCQQSHDVPRTFGQGTKVEIK , thanks.
Reply: 111000

Ask: Repeat for the following binder: L1-25 (antibody, V domains shown) VH: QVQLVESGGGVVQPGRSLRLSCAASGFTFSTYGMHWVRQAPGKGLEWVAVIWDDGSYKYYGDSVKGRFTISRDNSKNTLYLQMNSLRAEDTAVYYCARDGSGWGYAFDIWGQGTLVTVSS VL: DIQLTQSPSSLSASVGDRVTITCQASQDISPWLNWYQHKPGKAPKPLVFGSPNLETGVPSRFSASGSGTDFTLTISSLQPEDFATYYCQQYDSFPYTFGQGTKVEIK
Reply: 492000
